test-target: Metabotropic glutamate receptor 8 (Rattus norvegicus)
protocol-text: mGluR8 Gi/Go-coupled signaling modulation – cell-based, rat, thallium flux, HTS, primary screen (AID 488969)
condition-notes: HEK293 rat mGluR8, GIRK (G protein-gated inwardly rectifying potassium channel) thallium flux, FluoZin2; at 10 µM; stronger effect = higher value; submaximal glutamate (EC20) added with thallium
Whole data set: some 110,000 compounds, median “z-score” near -0.1, cut for the highest 2% near 2. For the sample, the highest values were picked, then their nearest neighbours and some compounds at random.
Lab note: compare z-score against -0.2. Equal or greater, write Y. Smaller, write N.

INPUT: Confirm if z-score reported for the compound O=C(Nc1ccccc1)c1ccc(N2CCN(c3ccccc3)CC2)c(S(=O)(=O)N2CCOCC2)c1 is -0.2 or above.
OUTPUT: Y

INPUT: Confirm if z-score reported for the compound Cc1cc(OCc2nc(-c3cccs3)no2)cc(C)c1Cl is -0.2 or above.
OUTPUT: Y

INPUT: Confirm if z-score reported for the compound O=C(CCn1c(=O)sc2ccccc21)Nc1ccon1 is -0.2 or above.
OUTPUT: N

INPUT: Confirm if z-score reported for the compound COc1ccccc1NC(=O)c1ccc(S(=O)(=O)N(C)C)cc1 is -0.2 or above.
OUTPUT: N

INPUT: Confirm if z-score reported for the compound COc1ccccc1C1(CCNS(=O)(=O)c2ccc(C)cc2)CCOC(C(C)C)C1 (stereo unspecified) is -0.2 or above.
OUTPUT: N

INPUT: Confirm if z-score reported for the compound Cc1cc2c(cc1C)C(c1ccccc1Br)CC(=O)N2 (stereo unspecified) is -0.2 or above.
OUTPUT: Y
